Target: huNav1.7α (human, UniProt Q15858 1-1988)
Assay: cell-based or functional assay

[
  {
    "Binder": "F010302379 (bispecific antibody, also called F0103275B05(E1D, N93R)-50GS-F0103500E03(P14A, L108Q)-FLAG3-HIS6) DVQLVESGGGLVQPGGSLRLSCAASGSIFNINSMAWYRRAPGKQRELVASSTNGGSTNYADSVKGRFTISRDNAKRVYLQMNSLTPEDTAVYYCRALLQPSIYDISRTYWGQGTLVTVSSGGGGSGGGGSGGGGSGGGGSGGGGSGGGGSGGGGSGGGGSGGGGSGGGGSEVQLVESGGGLVQAGGSLRLSCAASGRTFSRYQMGWFRQAPGKEREFVAYISWSGSTRYVDSVKGRFTISRDNAKNTVYLQMNSLKPEDTAVYHCAAGTAGIISSRPETYDSWGQGTQVTVSSGAADYKDHDGDYKDHDIDYKDDDDKGAAHHHHHH",
    "Qpatch IC50": "111 nM"
  }
]
